molecular target: dGA (Homo sapiens, UniProt P10636); test: Biacore X100 SPR binding kinetics of anti-tau scAbs (scAb captured via HuCk), analyte dGA; conditions: lead scAbs, Table 24, dissociation rate
Sequence (P10636 614-707): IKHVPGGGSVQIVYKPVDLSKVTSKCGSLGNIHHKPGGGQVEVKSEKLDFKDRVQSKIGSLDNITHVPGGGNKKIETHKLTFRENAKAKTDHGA
property_label: dissociation rate constant (kd)

| molecule | dissociation rate constant (kd) |
| --- | --- |
| CE2: anti-tau clone referred to as CE2 or E1B8, SEQ ID NO: 366 (protein, CE2/E1B8 amino acid sequence) scFv: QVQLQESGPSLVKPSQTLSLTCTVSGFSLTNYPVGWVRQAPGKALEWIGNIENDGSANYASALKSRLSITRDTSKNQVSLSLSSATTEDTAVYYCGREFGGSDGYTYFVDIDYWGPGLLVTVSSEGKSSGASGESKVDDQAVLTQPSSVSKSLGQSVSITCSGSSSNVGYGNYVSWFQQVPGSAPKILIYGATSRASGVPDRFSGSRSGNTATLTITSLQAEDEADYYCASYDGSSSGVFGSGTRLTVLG | 0.00242 s⁻¹ |

Now for a further molecule.
Query dissociation rate constant (kd) for S1G2: anti-tau binding molecule defined by its CDRs; scAb sequence SEQ ID NO: 81 (protein, S1G2 amino acid sequence) scFv: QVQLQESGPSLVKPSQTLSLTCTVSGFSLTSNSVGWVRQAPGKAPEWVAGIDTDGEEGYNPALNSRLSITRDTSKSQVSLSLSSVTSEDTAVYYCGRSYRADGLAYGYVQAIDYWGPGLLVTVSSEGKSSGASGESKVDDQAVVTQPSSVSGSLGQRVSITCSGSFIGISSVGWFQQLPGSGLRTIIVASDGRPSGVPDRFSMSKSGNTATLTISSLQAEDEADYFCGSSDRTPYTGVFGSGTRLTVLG
0.0003499 s⁻¹
